Recorded melting point, one value per entry.

// worked examples, melting point included
{"COMPOUND": "CCCc1nc(C)cn2nc(-c3cc(=O)n4cc(C5=CCNCC5)ccc4n3)cc12 [Compound 762]", "melting point": "257 to 260 °C"}
{"COMPOUND": "CCc1cc(-c2cc(=O)n3cc(N4CCNCC4)ccc3n2)cn2cc(C)nc12 [Compound 637]", "melting point": "264 to 271 °C"}
{"COMPOUND": "Cc1nc2ccc(-c3cc(=O)n4cc(C5=CCN(C)CC5)ccc4n3)cc2s1 [Compound 392]", "melting point": "170 to 172 °C"}
{"COMPOUND": "Cc1cn2cc(-c3cc(=O)n4cc(N5CCN(C(C)C)[C@@H](C)C5)ccc4n3)cc(Cl)c2n1 [Compound 498]", "melting point": "264 to 270 °C"}
{"COMPOUND": "Cc1cc(N2CCNCC2)cn2c(=O)cc(-c3ccc4nn(C)cc4c3)nc12 [Compound 754]", "melting point": "233 to 243 °C"}
{"COMPOUND": "COc1ccc(-c2cc(=O)n3cc(C4=CCN(C)CC4)cc(C)c3n2)cc1OC [Compound 251]", "melting point": "187 to 196 °C"}
{"COMPOUND": "CN(C)c1ccc(-c2cc(=O)n3cc(C4=CCNCC4)ccc3n2)cn1 [Compound 444]", "melting point": "255 to 257 °C"}
{"COMPOUND": "Cc1nc2ccc(-c3cc(=O)n4cc(C5CCNCC5)ccc4n3)cc2s1 [Compound 424]", "melting point": "222 to 224 °C"}
{"COMPOUND": "CCc1nc(C)cn2nc(-c3cc(=O)n4cc(C5CCN(C6CCC6)CC5)ccc4n3)cc12 [Compound 681]", "melting point": "227 to 229 °C"}
{"COMPOUND": "COc1ccc(-c2cc(=O)n3cc(N4CCN(O)CC4)ccc3n2)cc1OC [Compound 146]", "melting point": "202 to 204 °C"}

Recall and state the measured melting point for Cc1cn2cc(-c3cc(=O)n4cc(C5CCNCC5)ccc4n3)ccc2n1 [Compound 438] . 298 to 300 °C

Recall and state the measured melting point for CCc1nc(C)cn2nc(-c3cc(=O)n4cc(N5CCN(C6CC6)CC5)ccc4n3)cc12 [Compound 620] . 258 to 260 °C

Recall and state the measured melting point for CCc1nc(C)cn2nc(-c3cc(=O)n4cc(N5CCC(N(CC)CC)CC5)ccc4n3)cc12 [Compound 551] . 232 to 235 °C

Recall and state the measured melting point for Cc1cn2cc(-c3cc(=O)n4cc(N5CCN(CCO)[C@@H](C)C5)ccc4n3)cc(F)c2n1 [Compound 539] . 270 to 274 °C

Recall and state the measured melting point for Cc1cn2cc(-c3cc(=O)n4cc(N5CCN6CCC[C@H]6C5)ccc4n3)cc(F)c2n1 [Compound 271] . 270 to 274 °C

Recall and state the measured melting point for CCN1CCN(c2ccc3nc(-c4cc5cnc(C)cn5n4)cc(=O)n3c2)CC1 [Compound 466] . 220 to 230 °C

Recall and state the measured melting point for Cc1csc(-c2cc(=O)n3cc(N4CCNCC4)ccc3n2)n1 [Cpd 163] . 142 to 147 °C

Recall and state the measured melting point for CCc1nc(C)cn2nc(-c3cc(=O)n4cc(N5CCNCC5)ccc4n3)cc12 [Compound 546] . 230 to 233 °C

Recall and state the measured melting point for CCc1cc(N2CCN[C@H](C)C2)cn2c(=O)cc(-c3ccc(OC)c(OC)c3)nc12 [Compound 447] . 140 to 147 °C

Recall and state the measured melting point for COc1ccc(-c2cc(=O)n3cc(N4CCCN(C)CC4)ccc3n2)cc1OC [Compound 11] . 166 to 168 °C

Recorded values, source patent US11753407B2.
